Measured values drawn from PubChem BioAssay (NCI) for this set.

- System: NCI-H460 lung
- PROTOCOL: NCI-60 one-dose screen, 48 h (100 = growth as untreated, 0 = no growth, -100 = all killed)
- ASSAY SETUP: 10 µM unless noted
This is part of a sample that, as a whole, favours compounds with a hit. Of some 83,000 tested, about 20% had one in any assay.
Classify: 1 when growth is strictly less than 30%; -1 when growth is not.

Previously resolved entries follow.
[
  {
    "COMPOUND": "CN(C)CCOC(=O)Nc1ccccc1Cl",
    "ASSIGNED CLASS": -1
  },
  {
    "COMPOUND": "COc1ccc(C2NN=C3c4ccccc4CCC32)cc1 (configuration not stated)",
    "ASSIGNED CLASS": -1
  },
  {
    "COMPOUND": "CC(C)NCCCNC1=C(Cl)C(=O)c2ccccc2C1=O",
    "ASSIGNED CLASS": -1
  },
  {
    "COMPOUND": "Fc1ccc(Nc2nc(NCCNc3ccnc4cc(Cl)ccc34)nc(N3CCOCC3)n2)cc1",
    "ASSIGNED CLASS": -1
  },
  {
    "COMPOUND": "COc1ccc(C(=O)n2nc(/C=C/c3ccc(O)c(OC)c3)cc2/C=C/c2ccc(O)c(OC)c2)cc1",
    "ASSIGNED CLASS": 1
  }
]

Q) Criterion: growth strictly below 30%. Is it met by CCCCCCCCC(C)OC(=O)c1nn(C(C)=O)c2ccccc12 (configuration not stated) ?
A) -1

Q) Criterion: growth strictly below 30%. Is it met by COc1ccc(-c2cnoc2-c2ccc(OC)cc2O)cc1 ?
A) 1

Q) Criterion: growth strictly below 30%. Is it met by O=c1[nH]c(-c2ccccc2)nc(CN2CCCCC2)c1O ?
A) -1

Q) Criterion: growth strictly below 30%. Is it met by COc1cc(-c2nn(-c3cccc(NC(=O)c4ccc(Cl)c(C(F)(F)F)c4)c3)cc2-c2ccncc2)ccc1Cl ?
A) 1

Q) Criterion: growth strictly below 30%. Is it met by O=[N+]([O-])c1cnc(Sc2ccncn2)s1 ?
A) -1
